- tested-on: the molecule itself
- assay-overview: SEC-MALS; self-association of His6-SspB-CCD fusion proteins (ACCORD); Superdex 200 10/300 GL, 50 mM Tris pH 8.0, 0.5 mM TCEP, 200 mM NaCl; sample 3-5 mg/ml, 0.5 ml
measurement-label: stoichiometry N
One number for each entry.

Record summary for His6-SspB-Atg16 (58-130) fusion protein (other, E. coli | S. cerevisiae, UniProt P0AFZ3 1-165, looked up, Stringent starvation protein B (SspB), E. coli, full length, residues 1-165 (M1-K165), amplified from genomic DNA; Autophagy protein 16 (Atg16), S. cerevisiae, coiled-coil domain, residues 58-130 (V58-R130); source: E. coli BL21(DE3), purified (HisTrap, Superdex 200); not shown: His6, N-terminal, kept) MDLSQLTPRRPYLLRAFYEWLLDNQLTPHLVVDVTLPGVQVPMEYARDGQIVLNIAPRAVGNLELANDEVRFNARFGGIPRQVSVPLAAVLAIYARENGAGTMFEPEAAYDEDTSIMNDEEASADNETVMSVIDGDKPDHDDDTHPDDEPPQPPRGGRPALRVVKVSHDDALLNTLAILQKELKSKEQEIRRLKEVIALKNKNTERLNDELISGTIENNVLQQKLSDLKKEHSQLVAR : reported stoichiometry N = 2
